measurement.protocol: Lipophilicity, log D of compound at pH 7.4
Format: physicochemical
setup.conditions: buffer
reported.endpoint: logD

logD for `COc1ccc2oc3cc(C)[n+]([O-])c(-c4ccccc4)c3c2c1` is 2.3

Memo: `CCn1ncc2c(C(=O)Nc3ccc4nn(C)cc4c3)cc(C3CC3)nc21` , reported logD: 2.8

Consider `COc1ccc(-c2c3c(cc(C)[n+]2[O-])oc2ccc(OC)cc23)cc1` . Its measured logD is 2.5

Lab note: `CC(C)n1ncc2c(C(=O)Nc3ccc4nccnc4c3)cc(C3CC3)nc21` gave logD of 3.5

Documented logD of `CC(C)n1ncc2c(C(=O)Nc3ccc4ncccc4c3)cc(C3CC3)nc21` : 3.7

Field logD (entry `CC(C)n1ncc2c(C(=O)Nc3ccc4n[nH]cc4c3)cc(C3CC3)nc21` ) reads 3.3

Reported logD ( `COc1ccc2oc3cc(C)[n+]([O-])c(-c4ccc(Cl)cc4)c3c2c1` ) = 2.8

Memo: `CCn1ncc2c(C(=O)Nc3ccc4nn(C)c(C)c4c3)cc(C3CC3)nc21` , reported logD: 2.9

get_value(item= `CCn1ncc2c(C(=O)Nc3ccc4ncsc4c3)cc(C3CC3)nc21` , readout=logD) returns 3.4

Lab note: `CCn1ncc2c(C(=O)Nc3ccc4c(c3)ncn4C)cc(C3CC3)nc21` gave logD of 2.6

`COc1ccc2oc3cc(C)[n+]([O-])c(-c4ccc(C)cc4)c3c2c1` has a reported logD of 2.7

Lookup result for `CCn1ncc2c(C(=O)Nc3ccc(OC)cc3)cc(C3CC3)nc21` ; measured logD: 3.6

get_value(item= `CCn1cc2cc(NC(=O)c3cc(C4CC4)nc4c3cnn4CC)ccc2n1` , readout=logD) returns 3.1

Field logD (entry `CCCCn1ncc2c(C(=O)Nc3ccc4nn(C)cc4c3)cc(C3CC3)nc21` ) reads 3.2

Data point: `CCn1ncc2c(C(=O)N(C)c3ccc4nn(C)cc4c3)cc(C3CC3)nc21` ; logD = 2.2

For record `CCn1ncc2c(C(=O)Nc3ccc4ncccc4c3)cc(C3CC3)nc21` the listed logD is 3.2

Reported logD for `CCn1ncc2c(C(=O)Nc3ccc4ncn(C)c4c3)cc(C3CC3)nc21` was 2.6

Value of logD reported for the compound `CC(C)n1ncc2c(C(=O)Nc3ccc4nn(C)cc4c3)cc(C3CC3)nc21` is 3.3

`CCn1ncc2c(C(=O)Nc3ccc4[nH]ncc4c3)cc(C3CC3)nc21` yielded logD of 2.7

src = ChEMBL document CHEMBL5365425
